# Test system: UACC-257 melanoma
# protocol text: NCI tumour cell line growth inhibition, 48 h
Task for the reader: assign each of the following molecules its reported GI50.

COc1ccc(C2=C(c3cn(C)c4ccccc34)C(=O)NC2=O)cc1 > 25 µM
Cc1c(NC(=O)c2cc(C(N)=O)nc3cc(F)ccc23)c(C(F)(F)F)nn1Cc1ccc(C#N)cc1 > 95.3 µM
Cn1cc(C2=C(Sc3ccccc3)C(=O)NC2=O)c2ccccc21 > 12 µM
N#CC(C#N)=C/C=C(\Sc1ccc(F)c(Cl)c1)c1ccc(Cl)cc1 6.68 µM

Kindly consider the entry below.
Item: CC(=O)Nc1ccc(-c2csc(Nc3ccc(-c4csc(-c5ccccc5)n4)cc3)n2)cc1 Test system: UACC-257 melanoma Read-out: GI50 Value: ?
> 50 µM

###

# Tested on: HCT-15 colon
# protocol text: NCI tumour cell line growth inhibition, 48 h
endpoint: TGI

For orientation, consider the following solved cases.
molecule	system under test	TGI
CCCCCCCCCCCCCCCCP(=O)(OC)OC	HCT-15 colon	30.2 µM
CN(C)C=C1C(=O)N(C)C(=O)N(C)C1=O	HCT-15 colon	> 100 µM

Hi! Can you tell me TGI for each of these molecules?
1. CC(=O)Nc1ccc(-c2csc(Nc3ccc(-c4csc(-c5ccccc5)n4)cc3)n2)cc1
2. Nc1nc(N)nc(-c2ccccc2NS(=O)(=O)c2ccc([N+](=O)[O-])cc2)n1
3. CCN(CC)c1ccc(N=O)cc1
4. CON(C)C(=O)CCCO
5. O=c1nc(Oc2c(F)c(F)c(F)c(F)c2F)ccn1C1OC(CO)C(O)C1O (stereo unspecified)

1. > 50 µM
2. > 100 µM
3. 12.8 µM
4. > 100 µM
5. > 100 µM

Hi! Can you tell me TGI for each of these molecules?
1. CC(=O)Oc1ccc2c(c1OC(C)=O)CCC1C2=CC[C@]2(C)C(=O)CCC12 (stereo partly specified)
2. O=c1c2ccccc2nc(/C=C(\O)c2ccccc2)n1-c1ccccc1Cl
3. Nc1ncnc2oc(-c3cccs3)nc12
4. COc1ccc2c(c1)CC1Cc3cc(OC)c(OC)cc3CN1CC2 (stereo unspecified)
5. O=C(O)c1ccccc1C1CCCc2c1[nH]c1ccccc21 (stereo unspecified)
6. CC(C)=CCC[C@@H](C)C1=C(O)C(c2c(I)c(=O)n(C)c(=O)n2C)=C(C)C(=O)C1=O

1: 23.5 µM; 2: > 100 µM; 3: > 100 µM; 4: > 100 µM; 5: > 100 µM; 6: > 100 µM

Hi! Can you tell me TGI for each of these molecules?
1. CC1(C)CC(=O)C(Cc2ccccc2)(Cc2ccccc2)C(=O)C1
2. CC[C@]12C=CCN3CC[C@]4(C(=C(C(=O)OC)C1)Nc1cc(OC)c(OC(C)=O)cc14)[C@@H]32
3. Cc1cc(S(=O)(=O)Nc2nc(N)nc(N(C)C)n2)c(S)cc1Cl
4. Cn1c(=O)c2ccccc2c2nc3ccccc3nc21

1. > 100 µM
2. 1.56 µM
3. > 10 µM
4. > 100 µM

Hi! Can you tell me TGI for each of these molecules?
1. O=c1c2sc3nc(NCCN4CCCCC4)ncc3c2ncn1-c1ccccc1
2. COC(=O)[C@@]12OC[C@]34[C@H]([C@@H](O)[C@@H]1O)[C@@]1(C)CC(=O)C(OC(C)=O)=C(C)[C@@H]1C[C@H]3OC(=O)[C@H](OC(=O)C=C(C)C)[C@@H]24
3. C=CCN(C(=O)OC(C)(C)C)C1=CC2C(C)=CN(S(=O)(=O)c3ccccc3)C2C(OCc2ccccc2)=C1 (stereo unspecified)
4. COc1ccccc1N1C(=O)C2C3c4ccccc4C(OC(C)=O)(c4ccccc43)C2C1=O (stereo unspecified)

1. > 100 µM
2. 7.46 µM
3. > 100 µM
4. > 100 µM

###

# Tested on: SK-MEL-2 melanoma
# protocol text: NCI tumour cell line growth inhibition, 48 h
endpoint: TGI

compound	endpoint	assay value
O=c1nc(Oc2c(F)c(F)c(F)c(F)c2F)ccn1C1OC(CO)C(O)C1O (stereo unspecified)	TGI	> 100 µM
Cn1nc(-c2cccs2)cc1/N=C(\N)C(C)(C#N)Cc1ccccc1 (stereo unspecified)	TGI	> 100 µM
Ic1ccc2[nH]cc(SSc3c[nH]c4ccc(I)cc34)c2c1	TGI	6.96 µM
C/C(CC(=O)Nc1ccccc1[N+](=O)[O-])=N\NC(N)=O	TGI	> 100 µM
Cc1ccc(C(=O)Nc2ccc(S(=O)(=O)O)c3cc(S(=O)(=O)O)cc(S(=O)(=O)O)c23)cc1NC(=O)Nc1cc(C(=O)Nc2ccc(S(=O)(=O)O)c3cc(S(=O)(=O)O)cc(S(=O)(=O)O)c23)ccc1C	TGI	> 87.5 µM
Cc1[nH]c2c(C)cccc2c1C1Cc2ccccc2N1 (stereo unspecified)	TGI	54.3 µM

Hi! Can you tell me TGI for each of these compounds?
1. O=C1C=CC(=O)c2c1c1c(c3c2C2c4ccccc4C3c3ccccc32)C2c3ccccc3C1c1ccccc12
2. Nc1ccc2c(c1)Cc1cc(Cl)c(Cl)cc1-2
3. CN1C(NN)=NS(=O)(=O)c2ccccc21

4.25 µM
> 100 µM
> 100 µM

Hi! Can you tell me TGI for each of these compounds?
1. CCOc1cc(NC(C)=O)ccc1C(=O)NN1C(=O)/C(=C/c2ccco2)N=C1c1ccccc1
2. Cn1cc(C2=C(Sc3ccccc3)C(=O)NC2=O)c2ccccc21

1: > 100 µM; 2: > 21.8 µM

Hi! Can you tell me TGI for each of these compounds?
1. COc1cc2c3c(n(CCCN=[N+]=[N-])c(=O)c2cc1OC)-c1ccc(C#N)cc1C3=O
2. O=C1NC(=O)C(C(=O)C(=O)Nc2cccc(C(F)(F)F)c2)C(=O)N1
3. Cn1c(=O)c2ccccc2c2nc3ccccc3nc21
4. CC/C(CC(=O)CCC(=O)Nc1c(C)cccc1C)=N\NC(=O)NN
5. C=CCNC(=O)/C=C\C(=O)O
6. CC(C)(Cl)C(Cl)CC/C(CBr)=C(\Cl)CCl (stereo unspecified)
7. O=C1CNc2cc(N3CCN(c4ccccc4)CC3)ccc2N1

1: 86.1 µM; 2: > 100 µM; 3: > 100 µM; 4: > 100 µM; 5: > 100 µM; 6: 5.32 µM; 7: > 100 µM

###

# System: UO-31 renal
# protocol text: NCI tumour cell line growth inhibition, 48 h
endpoint: TGI

For orientation, consider the following solved cases.
compound	TGI
CC(C)=CCC[C@@H](C)C1=C(O)C(c2c(I)c(=O)n(C)c(=O)n2C)=C(C)C(=O)C1=O	> 100 µM
CC(=O)OCC1OC(n2c(=S)n(-c3ccc(C)cc3)c(=O)c3ccccc32)C(OC(C)=O)C(OC(C)=O)C1OC(C)=O (centres undefined)	> 100 µM
C[C@H](CCC(=O)NN)[C@H]1CC[C@H]2[C@@H]3CC[C@@H]4C[C@H](O)CC[C@]4(C)[C@H]3CC[C@]12C	> 100 µM
Cn1cc(NC(=O)c2cc(NC(=O)c3cc(NC=O)cn3C)cn2C)cc1C(=O)NCCC(=N)N	> 100 µM
Cc1[nH]c2c(C)cccc2c1C1Cc2ccccc2N1 (centres undefined)	65.7 µM
COC1(OC)C[C@H](C)[C@@]23O[C@]24C2=CC(=O)C=CC2=N[C@H]3C#C/C=C\C#C[C@]14O	1.76 µM

Hi! Can you tell me TGI for each of these compounds?
1. COc1ccc(Nc2nc3cc(C(F)(F)F)ccc3nc2C(=O)O)cc1OC
2. CC(C)(C)c1ccc(O)c(C[N+](C)(C)C)c1
3. Cc1ccc2nc(C=Nc3ccccc3Cl)cc(C)c2c1

["> 100 µM", "> 100 µM", "35.5 µM"]

###

# Tested on: UACC-62 melanoma
# protocol text: NCI tumour cell line growth inhibition, 48 h
endpoint: log10(TGI) (log10 of the value in µM)
Hi team, quick reminder: these entries are log10 of TGI (µM).

For orientation, consider the following solved cases.
compound	log10(TGI)
C=C1C(=O)OC2C1CC[C@H](C)C1(O)C(O)CC(=O)[C@@]21C (stereo not given in full)	1.40
CC(C)(C)c1[nH]nc2c1C(c1cc3ccccc3[nH]c1=O)Nc1cc(C(=O)Nc3ccc(Cl)cc3)ccc1N2 (stereo not given)	0.64
CCN(CC)c1ccc(N=O)cc1	1.37
c1cc(N2CCCC2)c2nc(-c3[nH]ncc3Nc3ncnc4[nH]ccc34)[nH]c2c1	-0.71

Hi! Can you tell me log10(TGI) for each of these compounds?
1. CCC[CH2][Sn]([CH2]CCC)([O]C(=O)Cc1ccc(F)cc1)[O]C(=O)Cc1ccc(F)cc1
2. O=C(Cc1csc2nc(-c3ccc(Br)cc3)cn12)N/N=C/c1cc(Br)ccc1O
3. CC(=O)Oc1ccc2c(c1OC(C)=O)CCC1C2=CC[C@]2(C)C(=O)CCC12 (stereo not given in full)

[0.28, 1.46, 1.41]

Which log10(TGI) value belongs to O=C1Nc2c(Cl)cc(Cl)cc2/C1=N/N=C/c1ccccc1O ?
1.51

These entries and their values trace back to PubChem BioAssay (NCI).
